measurement_target: human TRPV1 (Homo sapiens, UniProt Q8NER1)
Construct: expressed in transfected cells
Sequence (Q8NER1 whole entry): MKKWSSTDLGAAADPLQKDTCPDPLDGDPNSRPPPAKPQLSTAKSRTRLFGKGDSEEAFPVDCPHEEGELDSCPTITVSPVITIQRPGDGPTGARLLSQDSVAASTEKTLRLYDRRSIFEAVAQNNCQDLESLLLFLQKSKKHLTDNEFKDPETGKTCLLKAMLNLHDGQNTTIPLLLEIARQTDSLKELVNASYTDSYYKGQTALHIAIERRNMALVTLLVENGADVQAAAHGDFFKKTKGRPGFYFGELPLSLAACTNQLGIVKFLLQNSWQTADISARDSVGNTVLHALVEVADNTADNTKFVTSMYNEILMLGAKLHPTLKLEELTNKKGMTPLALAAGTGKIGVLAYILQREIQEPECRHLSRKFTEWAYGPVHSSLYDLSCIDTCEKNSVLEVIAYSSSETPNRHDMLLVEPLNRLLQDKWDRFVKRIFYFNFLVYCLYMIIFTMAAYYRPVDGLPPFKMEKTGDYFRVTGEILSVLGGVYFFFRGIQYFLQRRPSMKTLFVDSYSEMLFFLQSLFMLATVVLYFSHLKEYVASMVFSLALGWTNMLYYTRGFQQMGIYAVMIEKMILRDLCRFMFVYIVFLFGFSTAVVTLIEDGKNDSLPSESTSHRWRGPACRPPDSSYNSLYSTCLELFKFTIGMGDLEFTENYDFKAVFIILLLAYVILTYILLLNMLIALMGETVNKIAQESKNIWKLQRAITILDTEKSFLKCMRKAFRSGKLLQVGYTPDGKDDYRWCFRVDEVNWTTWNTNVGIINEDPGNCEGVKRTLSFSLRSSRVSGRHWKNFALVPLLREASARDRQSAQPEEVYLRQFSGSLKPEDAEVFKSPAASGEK
protocol_description: Capsaicin Activation Assay (FLIPR intracellular Ca2+, recombinant HEK293 cells)
Type: cell-based
measurement_setup: recombinant HEK293 cells expressing hTRPV1; 50 nM capsaicin; read-out: human TRPV1 capsaicin IC50
reported_property: pIC50
As a rule, pIC50 stands for the negative log10 of the concentration, concentration in M.

Study these solved cases before continuing.
O=C(Nc1cccc2c1C[C@H](O)C2)N[C@@H]1CC(CF)(CF)Oc2c(Cl)cccc21 = 6.80
CC1(C)C[C@@H](NC(=O)Nc2cccc3c2C[C@H](O)C3)c2ccc(F)c(F)c2O1 = 7.22
C[C@@]1(C(F)F)C[C@@H](NC(=O)Nc2cccc3c2C[C@H](O)C3)c2ccccc2O1 = 5.85
O=C(Nc1cccc2c1C[C@@H](O)C2)N[C@@H]1CC(CF)(CF)Oc2cc(Cl)ccc21 = 7.57
COCC1(COC)C[C@@H](NC(=O)Nc2cccc3c2C[C@H](O)C3)c2cc(F)ccc2O1 = 6.01
CC1(C)C[C@@H](NC(=O)Nc2ccc(F)c3c2C[C@@H](O)C3)c2ccccc2O1 = 5.82
O=C(Nc1cccc2c1C[C@@H](O)C2)N[C@H]1CC2(CCC2)Oc2ccc(F)cc21 = 5.55
CC1(C)C[C@@H](NC(=O)Nc2cccc3c2C[C@H](O)C3)c2ccc(C(F)(F)F)nc2O1 = 6.82
CC1(C)C[C@H](NC(=O)Nc2cccc3c2C[C@@H](O)C3)c2cc(F)ccc2O1 = 4.55
CC1(C)C[C@@H](NC(=O)Nc2ccc(F)c3c2C[C@H](O)C3)c2ccc(F)c(Cl)c2O1 = 6.36

Quick check: pIC50 of `CC1(C)C[C@@H](NC(=O)Nc2ccc(F)c3c2C[C@H](O)C3)c2cccc(OC(F)(F)F)c2O1` ?
7.09

Field entry: `CC1(C)C[C@@H](NC(=O)Nc2cccc3c2C[C@@H](O)C3)c2ccc(F)cc2O1`
7.13

What do we get for `O=C(Nc1cccc2c1C[C@H](O)C2)N[C@@H]1CC(CF)(CF)Oc2cc(Br)ccc21` ?
7.37

Then this molecule: `O=C(Nc1cccc2c1C[C@H](O)C2)N[C@H]1COc2ccc(Cl)cc2C1`
6.25

Note, next up: `CC1(C)C[C@@H](NC(=O)Nc2cccc3c2C[C@H](O)C3)c2ccc(Cl)c(F)c2O1`
7.57

And what about the molecule `CC1(C)C[C@@H](NC(=O)Nc2ccc(F)c3c2C[C@H](O)C3)c2ccc(C(F)(F)F)cc2O1` ?
7.24
